Hey, just so you know, these numbers are from the DeepSol protein solubility set.

Assay: soluble on expression in E. coli; label from the status in PepcDB or PDB records

construct sequence	soluble on expression in E. coli
DRKMNRKMISIVENDGNGFREVFRYDYERKNFVPDNLKEITSIQLERSRELLGWSRDKLYREIENRLLLIRGLAEKGVYDYDTLARELVKYYTNGD	not soluble
MTQLRHFSHGASVFDIDSVEDFTEKVIQSSVPVIVDFHAEWCGPCQALGPRLEEKVNGRQGSVLLAKINVDHAGELAMDYGISAVPTVFAFKNGEKISGFSGVLDDEQLDDFIEDVLAA	not soluble
MGSDKIHHHHHHMNLSMISASVTMGELQKKLDTLSHNIANSNTTGYKRREASFSDLLFQQVNTNKATQYETGRLTPNGIRVGSGAKVSQTALRMEQGTLTTTDRALDFAIANPSSFFEIETVVDGNPVTRLTRDGAFYLTANPNNDNLLQLVTQNGDYLLDSAGNRINIPATFEEITLTDQGTLQVTMPNGANVQAAQLQLIQVMKPQLLEAVGGNMFQLPDLAALGFAENEVYAAVGAGGGAVVQGTLEGSNVDIGREMTDLIETQRNYQFNARSVSMADQMMGLVNGLRR	not soluble
MTNLELSGSQSYLNDESTANLSSLAGKFLVQFWGVRGLIPTPSSNTSRYGGNTACVEMQVAGKRLIFDGGTGLRILGKAWQHLQQPLEAHLFFTNSQSNRIQGFPFFAPAFIAGNCFHIYGGAASNGASIKQCLCDQMLQPHFPYPLQVMQSELQFYPLTPDSEVKLDDVTIRTALINQTQRSIGYRVTWQEYSVAYVTDLNMSAEQGEREQVLQIIQDVDLLIANATYTPPTSHDHESVDLLWQAAVEMAQKAGVRKLIISHHHPDDHDDFLDQVEKEVQSTFSDALLACEGLALPVFLEHHHHHH	soluble
MDYTEESAQIPEMAEKLGIPTSRKETKTLELPVSIDFRNWCSPIEDQMDLGSCTAHAGVGVVEYFERRAFGKHIDGSRFFVYKTTRNLMGVKGDTGAWLRNTMGALALCGVPPEKYFPYTSRKTPGPDGEPTFDDEPSSFVYSLADNFEALNYFCHDPQGMNLPPEDVILSVKKYLAAGIPSMFGFYGFPSFKDTDVKGGIPFPGPDERSIWGHAVVAVGYDDNMKIRNTLSNKETTGAFLIRNSWGTAWGDKGYGWLPYEYALNKFALDFWSLISMKWVETGNFGLELESSRSRARETLSRDMPLPHALEHHHHHH	not soluble
MSLGKLIVPILKSPSHLGHSSSRVNRLYNEDKYSANLLQVKESQIFNFSIFDGHGGDQCSTYLAENLSLALEDLDQLVENDNDRQELFKKYAKNVGGYWKRWYKHRDNTVANWEKERIKLKNFLSDDLATRVPLAFLNADYNFFSKEQKSGSTCTSAMIETIYSKPGTFQPFFENYYFNRHTISKLSIGHLGDTRAIVADKNGLAHTLTTDHHPLNPIEAKRLRKYAANFFMTDSFGEERFVALANTRAFGDVDYKEVGVTAEPDFNQYIIGDLDAIKQFLTPDEIEKYTIGGLGGDESFLILCSDGVTNIMTDQEIADIVLTHVNLKGQTVATPQYCAEQVIKFVEFVGGDDNATCLVIRLNGWGNEGHHHHHH	not soluble
QVKLLESGPELVKPGASVKMSCKASGYTFTSYVMHWVKQKPGQGLEWIGYINPYNDGTKYNEKFKGKATLTSDKSSSTAYMELSSLTSEDSAVYYCVRGGYRPYYAMDYWGQGTSVTVSSAKTTPPSVYPLAPGSAAQTNSMVTLGCLVKGYFPEPVTVTWNSGSLSSGVHTFPAVLQSDLYTLSSSVTVPSSTWPSETVTCNVAHPASSTKVDKKIVPRDCTSHHHHHH	soluble
MATATMLKPLGDRVVVKRIEEEAKTKGGIVLPDTAKEKPQKGKVVAVGSGRTLDNGTKVPLEVKEGDTVVFAKYGGTEIEIDGEEYIILSERDLLAVI	soluble
GSHMNRFLTSIVAWLRAGYPEGIPPTDSFAVLALLCRRLSHDEVKAVANELMRLGDFDQIDIGVVITHFTDELPSPEDVERVRARLAAQGWPLDDVRDREEHA	soluble
MGKYTEQAKLAAVKEYCAGKAGLRDVAHRHDVDFSCLRQWVAAYQIHGPAALKEKRRQRYSDEFKLAVLKRMHDERLSLRQTAALFDIRQFGIINLWQRLFDEGALNASSKPPKKAGRPRKMTTPLPPVNSSPINDESRSRDELLAEVKQLRMEVDYLKKLDALVQKKQRIAQQKKRKSLEHHHHHH	not soluble
MDNNEKEKSKSELLVVTGLSGAGKSLVIQCLEDMGYFCVDNLPPVLLPKFVELMEQGNPSLRKVAIAIDLRGKELFNSLVAVVDKVKSESDVIIDVMFLEASTEKLISRYKETRRAHPLMEQGKRSLINAINDEREHLSQIRSIANFVIDTTKLSPKELKERIRRYYEDEEFETFTINVTSFGFKHGIQMDADLVFDVRFLPNPYYVVDLRPLTGLDKDVYNYVMKWKETEIFFEKLTDLLDFMIPGYKKEGKSQLVIAIGCTGGQHRSVALAERLGNYLNEVFEYNVYVHHRDAHIESGEKK	not soluble
PNIADKGSVFYHFSATSFDSVDGTRHYRVWTAVPNTTAPASGYPILYMLDGNAVMDRLDDELLKQLSEKTPPVIVAVGYQTNLPFDLNSRAYDYTPAAESRKTDLHSGRFSRKSGGSNNFRQLLETRIAPKVEQGLNIDRQRRGLWGHSYGGLFVLDSWLSSSYFRSYYSASPSLGRGYDALLSRVTAVEPLQFCTKHLAIMEGSATQGDNRETHAVGVLSKIHTTLTILKDKGVNAVFWDFPNLGHGPMFNASFRQALLDISGENANYTAGCHELSH	soluble
MQRLFVYGSLGPGRPNEHLMQKIGGQWQAASLRGRLLEKGWGAGMGFPGLAIDADGEEIHGHVFVSDRLAEHWPALDEFEGSEYRRVATRVTLADGAQVDAYVYALRD	not soluble

====

Experiment: soluble on expression in E. coli; label from the status in PepcDB or PDB records

construct sequence	soluble on expression in E. coli
MEWIKQILAKHMKEDGTLDMEAANKEIDKEFPVNAVPKDQYNNLSSQLAEANKTLKSLEAKTKDNPDVQKELADLKEKADALEKENKDLKINSQVSAALQSAGAKDIDYALFKLGELELDKDGNVKDLESKVKDLKASIPDYFEKKDTLDDKSKKKTENKAGYQPIDNKLPKGKEPNEKDPFEAILSKYE	not soluble
MSAPWETLLDWWFGTSSDAAEVVAQRNGLWFGKNVCQDADAGGRFGDLVNQALDGGLQEWTAEADGWLALILLLDQLPRMIYRDTPRAYAGDARAQRVVREGLEKGFDRQLPPVRRVFAYLVLEHAEDLPSQERAVACFRDLRDQVGGSVRKPFDDFYDYAERHHAVVARFGRFPHRNAILGRPSSEEETAFLREPGSRF	not soluble
MSLKAAVLKNYGTLPEYQEFPEPKPKNYDELLVTPIASSVKRLDVIRAAGKHYTKFSELPAVMGMDGVAKLDNNSRVYAMGITGMMAEKALIDQRTMTVLPDGLDAGLAAALPNALIGSDLALLERGKIKTGDVVFINGATGLTGSLAVQMAKLRGAKRVIVTGRDPIKLQHLKDLGAYLTITTNQPDNSFVKELINAYNQSPFNLILDYLWGHPAELIIEALRRIRFLNSLKYISIGSLAGEGISVPSQLLRSKDLELIGSGIGSLDPNAVQVYMQKHLTEIFDYANQGKLSMELKSFPLDKISSAWISAPAVITIEGHHHHHH	not soluble

====

Experiment: soluble on expression in E. coli; label from the status in PepcDB or PDB records
quantity kind: soluble on expression in E. coli

construct sequence	reported measurement
MAHHHHHHMSSESYAIGQEELVYDRMFRVMRTVGEMMRDRKYQVPSSIIPETVGQFCEQYVDREGRRIYRERMTVPCERVGGTHRSRAMVFFASELGMEGMKGYCQTAMDANCERVIIVTHGKVNATVKRYVDCINRSGTGQKVQLFDEDDLVVNITHHELVPKHTQLEDEEVKEMLEAHSLELNMLPRILSTDPVAAYLGLERGRVVRIERKSVSAGFYVTYRQVV	not soluble
MGSDKIHHHHHHMDLNALTLLVDILDAGNLSKAAQRLKMSRANVSYRLNQLEKSIGLQLVRRTTRRIEPTEIGLRLYEHGRRIQSELFAAREAVTTLGQDLQGRVRLSVPSGYGQLVMSNWLIAFKRLYPGIVLDVVFENRIEDLMRDEVDIAVRVMSEPPQNLVARDMGAVRYVACASPGFAATHGMPTELGQLFDAPVITSTVVGRQLRVAAYLGDERHEVLLEPTLISENFLFLRQAILAGLGVGIVPDYVVHDDVRRGAVVTTLDAYRLSIFGTHMYMLYMPNRHHTRATSTFIDFMLEEARNAGRGG	not soluble
MLTSAQTRSLFRNNIFYKYRTAISVCQSIGRSIRSEEDWAYTFTLDSRFPKYISDHRNLINESVSFYEKRIPDFPSEKSIQKLKNEIFRNLPFLEHHHHHH	not soluble
